Target: Retinoic acid receptor alpha (Homo sapiens, UniProt P10276)
Sequence (P10276 whole entry): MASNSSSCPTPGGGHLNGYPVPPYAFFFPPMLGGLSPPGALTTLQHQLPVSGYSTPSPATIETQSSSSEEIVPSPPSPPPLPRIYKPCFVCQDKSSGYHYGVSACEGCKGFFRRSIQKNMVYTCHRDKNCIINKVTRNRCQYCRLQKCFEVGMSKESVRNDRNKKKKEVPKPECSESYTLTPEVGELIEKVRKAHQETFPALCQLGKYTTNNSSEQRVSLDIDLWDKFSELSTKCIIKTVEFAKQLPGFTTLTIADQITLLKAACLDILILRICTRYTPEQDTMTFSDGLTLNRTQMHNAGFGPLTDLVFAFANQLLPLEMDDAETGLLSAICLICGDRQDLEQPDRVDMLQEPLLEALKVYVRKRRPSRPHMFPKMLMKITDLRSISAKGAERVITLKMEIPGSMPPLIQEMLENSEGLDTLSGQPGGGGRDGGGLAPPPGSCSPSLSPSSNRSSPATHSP
Assay: Transcriptional activation of Retinoic acid receptor RAR alpha
RECORDED METRIC: EC50 (nM)

COMPOUND STRUCTURE: COc1cc2c(cc1\C(C)=C/C=C/C(C)=C/C(=O)O)C(C)(C)CCC2(C)C
RECORDED NUMBER: 40

----------
biological target: Retinoic acid receptor RXR-gamma (Homo sapiens); test: Transcriptional activation of Retinoid X receptor RXR gamma
Sequence (P48443 whole entry): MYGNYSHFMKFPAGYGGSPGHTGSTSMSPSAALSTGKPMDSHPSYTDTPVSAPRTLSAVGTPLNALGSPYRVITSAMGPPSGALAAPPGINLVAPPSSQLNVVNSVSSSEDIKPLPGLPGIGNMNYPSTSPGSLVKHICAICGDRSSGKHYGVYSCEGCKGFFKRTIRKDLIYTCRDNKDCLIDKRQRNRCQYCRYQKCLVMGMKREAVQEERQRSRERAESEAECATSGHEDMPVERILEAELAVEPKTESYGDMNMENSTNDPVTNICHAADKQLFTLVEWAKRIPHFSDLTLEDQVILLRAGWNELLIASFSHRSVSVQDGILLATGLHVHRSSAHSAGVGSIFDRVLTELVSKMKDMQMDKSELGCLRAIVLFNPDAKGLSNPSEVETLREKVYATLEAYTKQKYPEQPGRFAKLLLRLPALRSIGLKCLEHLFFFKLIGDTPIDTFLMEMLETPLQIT
pEC50: −log10 of the molar value.

COMPOUND STRUCTURE: CCOc1cc2c(cc1\C(C)=C/C=C/C(C)=C/C(=O)O)C(C)(C)CCC2(C)C
pEC50: 8.15

COMPOUND STRUCTURE: COc1cc2c(cc1\C(C)=C/C=C/C(C)=C/C(=O)O)C(C)(C)CCC2(C)C
pEC50: 8.05

----------
Target: UniProt P28702
Sequence (P28702 whole entry): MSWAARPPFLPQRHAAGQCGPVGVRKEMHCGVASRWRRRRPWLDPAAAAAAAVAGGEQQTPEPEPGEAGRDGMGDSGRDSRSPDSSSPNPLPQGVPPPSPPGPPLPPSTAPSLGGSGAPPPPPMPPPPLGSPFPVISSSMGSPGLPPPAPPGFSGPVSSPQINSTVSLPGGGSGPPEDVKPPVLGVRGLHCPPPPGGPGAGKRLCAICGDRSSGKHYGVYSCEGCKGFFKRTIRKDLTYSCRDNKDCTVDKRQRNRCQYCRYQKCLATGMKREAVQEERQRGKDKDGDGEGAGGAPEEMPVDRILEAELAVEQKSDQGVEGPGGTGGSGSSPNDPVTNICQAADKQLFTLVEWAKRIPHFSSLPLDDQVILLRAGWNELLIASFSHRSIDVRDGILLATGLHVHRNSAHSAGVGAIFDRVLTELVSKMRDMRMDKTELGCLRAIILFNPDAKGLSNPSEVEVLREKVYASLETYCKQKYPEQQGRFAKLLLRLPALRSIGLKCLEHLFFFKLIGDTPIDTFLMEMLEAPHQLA
pKi: −log10 of the molar value.
RECORDED METRIC: pKi

COMPOUND STRUCTURE: CCOc1cc2c(cc1\C(C)=C/C=C/C(C)=C/C(=O)O)C(C)(C)CCC2(C)C
TARGET OF ASSAY: UniProt P28702
RECORDED METRIC: pKi
RECORDED NUMBER: 7.92
